Biological target: ATF3 (Homo sapiens, UniProt P18847)
Construct: made in house
Sequence (P18847 86-149 limits assumed): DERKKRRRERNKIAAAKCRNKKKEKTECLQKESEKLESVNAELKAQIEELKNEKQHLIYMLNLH
Assay: Direct-binding FRET assay
Conditions: 23°C; C-terminal rhodamine design; repeat 1; read-out: Kd
pKd: −log10 of the molar value. Where no end group is shown, it is not given here.
experimental.readout: pKd

# input Param item = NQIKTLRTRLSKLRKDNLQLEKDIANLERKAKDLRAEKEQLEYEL [ATF4-d1] ; retrieve measured pKd.
# output < 6.00

---

Target: NFE2L3 (Homo sapiens, UniProt Q9Y4A8)
Construct: made in house
Sequence (Q9Y4A8 578-641 limits assumed): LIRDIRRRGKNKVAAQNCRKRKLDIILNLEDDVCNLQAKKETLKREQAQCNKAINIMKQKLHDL
Experiment: Direct-binding FRET assay
Details: 4°C; N-terminal rhodamine design; mean or single; read-out: Kd
Where no end group is shown, it is not given here.
Recorded Kd by entry

The following sequences have reported results that may help.
[[record]]
seq_string = "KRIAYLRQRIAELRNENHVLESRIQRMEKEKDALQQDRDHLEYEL [ATF5-d1]"
target_of_assay = "NFE2L3 (Homo sapiens, UniProt Q9Y4A8)"
experimental_readout = "Kd"
result = "> 1 µM"

[[record]]
seq_string = "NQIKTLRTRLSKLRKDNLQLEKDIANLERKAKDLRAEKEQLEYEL [ATF4-d1]"
target_of_assay = "NFE2L3 (Homo sapiens, UniProt Q9Y4A8)"
experimental_readout = "Kd"
result = "> 1 µM"


--- query ---
# input Param item = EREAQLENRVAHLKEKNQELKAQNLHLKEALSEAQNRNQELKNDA [XBP1-d1] ; retrieve measured Kd.
# output > 1 µM

---

Biological target: NFIL3 (Homo sapiens)
Construct: made in house
Sequence (Q16649 73-136 limits assumed): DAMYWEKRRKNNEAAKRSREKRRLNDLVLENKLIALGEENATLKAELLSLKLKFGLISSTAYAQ
Experiment: Direct-binding FRET assay
Details: 37°C; C-terminal fluorescein design as donor, TAMRA target titrated; read-out: Kd
pKd: −log10 of the molar value. Where no end group is shown, it is not given here.
experimental.readout: pKd

[[record]]
seq_string = "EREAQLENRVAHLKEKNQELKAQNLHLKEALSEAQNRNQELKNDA [XBP1-d1]"
experimental_readout = "pKd"
result = "< 6.00"


--- query ---
# input Form field: pKd recorded for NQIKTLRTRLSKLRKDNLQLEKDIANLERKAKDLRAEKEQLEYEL [ATF4-d1] with NFIL3 (Homo sapiens) (enter value)
# output < 6.00

---

Molecular target: DBP (Homo sapiens, UniProt Q10586)
Construct: made in house
Sequence (Q10586 255-318 limits assumed): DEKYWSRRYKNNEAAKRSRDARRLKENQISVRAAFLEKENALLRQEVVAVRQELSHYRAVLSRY
Experiment: Direct-binding FRET assay
Settings: 37°C; N-terminal rhodamine design; mean or single; read-out: Kd
Where no end group is shown, it is not given here.
experimental.readout: Kd

The following sequences have reported results that may help.
[[record]]
seq_string = "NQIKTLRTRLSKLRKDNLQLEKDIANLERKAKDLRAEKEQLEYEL [ATF4-d1]"
experimental_readout = "Kd"
result = "> 1000 nM"

[[record]]
seq_string = "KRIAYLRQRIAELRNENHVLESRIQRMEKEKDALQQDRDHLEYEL [ATF5-d1]"
experimental_readout = "Kd"
result = "> 1000 nM"


--- query ---
# input Param item = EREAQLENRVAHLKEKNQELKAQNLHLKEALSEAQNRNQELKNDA [XBP1-d1] ; retrieve measured Kd.
# output > 1000 nM
